The reported measurements were obtained from PubChem BioAssay (NCI).

Entries annotated with measured TGI
System: HL-60(TB) leukemia
Experiment: NCI tumour cell line growth inhibition, 48 h
QUANTITY MEASURED: TGI (µM)

>>> endpoint_value("O=C1C(Cl)=C(NCCN2CCOCC2)C(=O)c2ncccc21")
4.44
>>> endpoint_value("Ic1ccc2c(c1)N(c1ccccc1)c1cc(N=c3ccc4nc5ccc(I)cc5n(-c5ccccc5)c-4c3)ccc1N2")
58.2
>>> endpoint_value("COc1ccc(C(=O)c2sc(N(C)C)nc2-c2ccccc2)cc1")
40.9
>>> endpoint_value("CCC/C=C/c1cc2c(cc1O)CC[C@@H]1[C@@H]2CC[C@]2(C)[C@@H](O)CC[C@@H]12")
27.3
>>> endpoint_value("OC1(c2ccc(Cl)cc2)C(N2CCCC2)c2ccccc2C2=NCCN21 (configuration not stated)")
50.7
>>> endpoint_value("NC1=NC(c2ccccc2)CC(c2cc(Cl)ccc2O)=N1 (configuration not stated)")
40.1
>>> endpoint_value("COC1(C)CP(=O)(OC(C)C)CC(C)=C1Cl (configuration not stated)")
29.1
>>> endpoint_value("COc1cc2cc(Oc3ccc(NC(=O)Nc4ccc(Cl)c(C(F)(F)F)c4)cc3)c(C)nc2cc1OCCN1CCOCC1")
7.55
>>> endpoint_value("c1ccc(CCCCNCc2cc(CNCCCCc3ccccc3)cc(CNCCCCc3ccccc3)c2)cc1")
0.434
>>> endpoint_value("COc1ccc2c(c1)CCCN2c1c2ccccc2nc2ccccc12")
1.09
>>> endpoint_value("COc1ccc(N2C(=O)/C(=C/c3ccc(N(CCC#N)CCC#N)cc3C)N=C2c2cc([N+](=O)[O-])ccc2Cl)cc1")
26.6
